In this section we review reported pIC50 values for a set of compounds.
- EXPERIMENTAL_SYSTEM: human Cav2.2 (Homo sapiens)
- Sequence (Q00975 whole entry): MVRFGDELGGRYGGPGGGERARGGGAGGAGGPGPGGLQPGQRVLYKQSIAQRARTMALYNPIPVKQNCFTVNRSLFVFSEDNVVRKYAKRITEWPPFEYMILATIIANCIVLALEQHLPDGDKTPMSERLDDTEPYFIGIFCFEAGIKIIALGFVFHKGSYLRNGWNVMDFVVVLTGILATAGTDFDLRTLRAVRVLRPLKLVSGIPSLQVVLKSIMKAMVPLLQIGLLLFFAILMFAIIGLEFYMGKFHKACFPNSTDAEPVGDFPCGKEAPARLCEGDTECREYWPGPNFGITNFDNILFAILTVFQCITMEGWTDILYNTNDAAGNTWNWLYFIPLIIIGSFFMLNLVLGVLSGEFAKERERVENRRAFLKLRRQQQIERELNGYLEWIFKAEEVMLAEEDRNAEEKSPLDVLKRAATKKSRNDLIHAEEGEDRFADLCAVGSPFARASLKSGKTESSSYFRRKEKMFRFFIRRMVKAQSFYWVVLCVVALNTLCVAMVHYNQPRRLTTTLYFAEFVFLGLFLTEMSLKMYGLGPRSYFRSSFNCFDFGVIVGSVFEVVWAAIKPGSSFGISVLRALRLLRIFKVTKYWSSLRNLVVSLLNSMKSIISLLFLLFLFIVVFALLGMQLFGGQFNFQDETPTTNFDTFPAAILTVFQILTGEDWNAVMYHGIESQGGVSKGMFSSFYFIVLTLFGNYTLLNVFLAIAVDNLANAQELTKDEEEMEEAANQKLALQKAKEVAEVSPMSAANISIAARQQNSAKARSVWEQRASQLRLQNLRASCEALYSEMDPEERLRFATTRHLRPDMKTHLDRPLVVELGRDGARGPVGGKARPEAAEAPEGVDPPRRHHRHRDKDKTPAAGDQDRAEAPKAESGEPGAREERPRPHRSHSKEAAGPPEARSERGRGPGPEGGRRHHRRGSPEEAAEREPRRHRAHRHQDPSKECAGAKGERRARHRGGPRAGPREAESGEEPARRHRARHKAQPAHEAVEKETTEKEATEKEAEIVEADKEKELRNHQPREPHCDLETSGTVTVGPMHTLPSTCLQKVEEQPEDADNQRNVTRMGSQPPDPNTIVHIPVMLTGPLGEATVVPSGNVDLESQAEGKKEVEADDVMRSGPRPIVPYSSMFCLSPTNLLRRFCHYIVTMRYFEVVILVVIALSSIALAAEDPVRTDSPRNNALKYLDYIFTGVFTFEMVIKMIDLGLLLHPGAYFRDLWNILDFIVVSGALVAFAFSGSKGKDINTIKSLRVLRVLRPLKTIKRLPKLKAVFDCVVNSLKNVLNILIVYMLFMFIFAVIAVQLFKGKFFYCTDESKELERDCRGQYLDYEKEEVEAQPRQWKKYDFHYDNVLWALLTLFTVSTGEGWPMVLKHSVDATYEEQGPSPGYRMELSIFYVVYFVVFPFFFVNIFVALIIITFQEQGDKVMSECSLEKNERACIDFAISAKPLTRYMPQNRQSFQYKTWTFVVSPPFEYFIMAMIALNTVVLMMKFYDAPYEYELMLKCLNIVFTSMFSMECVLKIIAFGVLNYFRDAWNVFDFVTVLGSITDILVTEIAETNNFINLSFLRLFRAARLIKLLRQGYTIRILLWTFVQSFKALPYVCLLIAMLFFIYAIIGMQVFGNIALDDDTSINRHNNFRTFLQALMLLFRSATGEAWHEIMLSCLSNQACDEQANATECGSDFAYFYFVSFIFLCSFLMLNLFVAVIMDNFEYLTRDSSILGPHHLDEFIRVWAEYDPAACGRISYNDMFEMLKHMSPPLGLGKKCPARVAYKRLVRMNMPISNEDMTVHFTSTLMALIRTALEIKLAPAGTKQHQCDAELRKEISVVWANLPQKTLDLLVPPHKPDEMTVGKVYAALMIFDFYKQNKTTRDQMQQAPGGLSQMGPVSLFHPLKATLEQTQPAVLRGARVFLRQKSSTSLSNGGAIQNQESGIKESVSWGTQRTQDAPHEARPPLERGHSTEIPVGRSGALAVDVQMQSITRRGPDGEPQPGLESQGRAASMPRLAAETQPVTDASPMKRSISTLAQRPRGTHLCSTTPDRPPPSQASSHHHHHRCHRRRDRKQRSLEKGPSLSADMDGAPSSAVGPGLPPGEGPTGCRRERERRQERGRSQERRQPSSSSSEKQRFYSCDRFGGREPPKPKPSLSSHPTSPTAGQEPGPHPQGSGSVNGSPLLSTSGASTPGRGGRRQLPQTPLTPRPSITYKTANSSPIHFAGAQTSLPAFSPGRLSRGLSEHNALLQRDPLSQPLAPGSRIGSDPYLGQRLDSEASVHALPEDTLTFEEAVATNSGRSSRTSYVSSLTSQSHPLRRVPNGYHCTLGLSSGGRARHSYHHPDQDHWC
- Sequence (P54289 25-946 partner limits assumed): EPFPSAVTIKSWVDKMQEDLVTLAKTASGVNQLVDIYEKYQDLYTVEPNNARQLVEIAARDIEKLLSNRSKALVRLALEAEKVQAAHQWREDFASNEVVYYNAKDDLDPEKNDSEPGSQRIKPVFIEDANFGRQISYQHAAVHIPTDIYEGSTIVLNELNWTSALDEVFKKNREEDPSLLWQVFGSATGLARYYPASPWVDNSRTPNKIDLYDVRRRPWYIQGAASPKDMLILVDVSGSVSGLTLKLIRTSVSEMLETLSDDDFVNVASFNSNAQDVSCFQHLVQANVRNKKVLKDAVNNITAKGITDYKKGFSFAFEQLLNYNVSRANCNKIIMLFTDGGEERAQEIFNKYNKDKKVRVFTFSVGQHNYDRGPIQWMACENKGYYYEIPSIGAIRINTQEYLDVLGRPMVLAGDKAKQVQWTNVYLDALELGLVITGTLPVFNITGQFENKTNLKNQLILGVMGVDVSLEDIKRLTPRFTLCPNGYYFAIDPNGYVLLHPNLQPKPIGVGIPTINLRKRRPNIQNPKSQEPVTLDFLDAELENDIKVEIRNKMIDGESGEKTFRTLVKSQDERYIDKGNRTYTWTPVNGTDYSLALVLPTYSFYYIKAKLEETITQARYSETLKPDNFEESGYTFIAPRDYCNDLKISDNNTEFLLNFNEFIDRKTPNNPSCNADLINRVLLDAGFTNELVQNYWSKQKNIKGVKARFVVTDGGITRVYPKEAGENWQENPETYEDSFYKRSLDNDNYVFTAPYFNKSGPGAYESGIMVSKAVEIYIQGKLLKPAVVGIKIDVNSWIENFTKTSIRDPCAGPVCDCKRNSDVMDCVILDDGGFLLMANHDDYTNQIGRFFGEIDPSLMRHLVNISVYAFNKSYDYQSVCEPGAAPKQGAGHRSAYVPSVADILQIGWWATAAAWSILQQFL
- Sequence (P54289 947-1103 partner limits assumed): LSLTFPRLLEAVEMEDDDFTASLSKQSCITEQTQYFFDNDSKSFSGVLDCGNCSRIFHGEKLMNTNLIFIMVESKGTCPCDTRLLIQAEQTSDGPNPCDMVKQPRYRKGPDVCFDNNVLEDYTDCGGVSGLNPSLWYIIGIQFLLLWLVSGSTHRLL
- Sequence (P54284 whole entry partner): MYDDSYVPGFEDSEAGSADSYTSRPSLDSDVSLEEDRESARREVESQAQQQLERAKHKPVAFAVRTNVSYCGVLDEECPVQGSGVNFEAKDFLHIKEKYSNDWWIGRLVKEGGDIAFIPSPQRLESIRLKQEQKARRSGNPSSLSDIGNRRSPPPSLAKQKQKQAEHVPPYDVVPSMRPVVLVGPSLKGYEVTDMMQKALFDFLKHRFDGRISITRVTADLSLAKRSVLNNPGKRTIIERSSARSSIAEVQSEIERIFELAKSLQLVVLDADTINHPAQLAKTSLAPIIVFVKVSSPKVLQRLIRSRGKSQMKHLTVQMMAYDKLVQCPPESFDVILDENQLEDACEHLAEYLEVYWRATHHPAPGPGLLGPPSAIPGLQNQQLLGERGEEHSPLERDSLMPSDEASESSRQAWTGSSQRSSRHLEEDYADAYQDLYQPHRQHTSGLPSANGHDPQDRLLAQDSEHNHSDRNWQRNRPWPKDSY
- ASSAY_PROCEDURE: Assessment of calcium channel activity using FLIPR (Ca2+ influx in IMR32 cells)
- Type: cell-based
- CONDITION_DETAILS: 60 minute pre-incubation with compound, 2 μM nifedipine, depolarized with 80 mM KCl
- Experimental: (i) In Vitro Methods—Assessment of Calcium Channel Activity Using FLIPR: The IMR32 cells were maintained in MEM media containing 10% (v/v) FBS, 1% (v/v) antibiotic/antimitotic, 1% (v/v) sodium pyruvate and 1% (v/v) MEM NEAA. […] To determine the IC50 values, the percent inhibition of the compound at each concentration was determined relative to the activity in the absence of inhibitor, and data was fitted using non-linear regression sigmoidal dose response curve analysis with GraphPad Prism®.
pIC50: −log10 of the molar value.

| LINE_NOTATION | OPERATOR_SYMBOL | pIC50 |
| --- | --- | --- |
| O=C(N[C@H]1CC[C@H]2CN(S(=O)(=O)CCc3ccccc3)C[C@H]21)C(C1CCCCC1)C1CCCCC1 | < | 4.00 |
| CN[C@@H](CC(C)C)C(=O)N[C@@H]1CC[C@H]2CN(S(=O)(=O)c3ccc(F)cc3)C[C@H]21 | = | 5.68 |
| O=C(N[C@H]1CC[C@H]2CN(S(=O)(=O)CCc3cccc4ccccc34)C[C@H]21)C(C1CCCCC1)C1CCCCC1 | < | 4.00 |
| CC(C)C[C@H](NCC(C)(C)C)C(=O)N[C@@H]1CC[C@H]2CN(Cc3ccccc3)C[C@H]21 | = | 5.09 |
| CCN([C@@H](CC(C)C)C(=O)N[C@H]1CC[C@@H]2CN(Cc3cccc(C(F)(F)F)c3)C[C@@H]21)S(C)(=O)=O | = | 6.09 |
| CC(C)[C@@H](C(=O)N[C@H]1CC[C@@H]2CN(S(=O)(=O)c3cccc(C(F)(F)F)c3)C[C@@H]21)N(C)C(=O)OC(C)(C)C | = | 6.74 |
| CC(C)C[C@@H](C(=O)N[C@@H]1CC[C@H]2CN(Cc3ccccc3)C[C@H]21)N(C)CC(C)(C)C | = | 5.77 |

----------
- EXPERIMENTAL_SYSTEM: human Cav2.2 (Homo sapiens)
- ASSAY_PROCEDURE: Assessment of calcium channel activity using FLIPR (Ca2+ influx in IMR32 cells)
- Format: cell-based
- CONDITION_DETAILS: 60 minute pre-incubation with compound, 2 μM nifedipine, depolarized with 80 mM KCl
pIC50: −log10 of the molar value.
# key: entry, value: pIC50
ATTRIBUTE_MEASURED: pIC50

| COMPOUND | ATTRIBUTE_MEASURED | TEST_VALUE |
| --- | --- | --- |
| CCC[C@@H](C(=O)N[C@@H]1CC[C@H]2CN(S(=O)(=O)c3ccc(C(F)(F)F)cc3)C[C@H]21)N(C)C(=O)OC(C)(C)C [Example 331] | pIC50 | 6.12 |
| CN[C@@H](CC(C)(C)C)C(=O)N(C)[C@H]1CC[C@@H]2CN(S(=O)(=O)c3ccc(C(F)(F)F)cc3)C[C@@H]21 [Example 437] | pIC50 | 5.61 |
| CCC[C@H](NC)C(=O)N[C@H]1CC[C@@H]2CN(S(=O)(=O)c3ccc(Cl)c(Cl)c3)C[C@@H]21 [Example 542] | pIC50 | 5.63 |
| CC(C)C(C(=O)N[C@@H]1CC[C@H]2CN(Cc3ccccc3)C[C@H]21)C(C)C [Example 235] | pIC50 | 4.85 |
| CC(C)[C@@H](C(=O)N[C@@H]1CC[C@H]2CN(Cc3ccccc3)C[C@H]21)N(C)C(=O)OC(C)(C)C [Example 232] | pIC50 | 5.44 |
| CN[C@@H](CC(C)C)C(=O)N[C@@H]1CC[C@H]2CN(S(=O)(=O)c3ccc(F)c(C(F)(F)F)c3)C[C@H]21 [Example 407] | pIC50 | 5.27 |
| CC(C)[C@@H](CC(=O)N[C@H]1CC[C@@H]2CN(S(=O)(=O)c3cccc(C(F)(F)F)c3)C[C@@H]21)NS(C)(=O)=O [Example 515] | pIC50 | 5.50 |
| CCN[C@H]1CC[C@@H]2CN(S(=O)(=O)c3ccc(C(F)(F)F)cc3Cl)C[C@@H]21 [Example 293] | pIC50 | 5.32 |
| CC(C)(C)OC(=O)N1CCCC[C@H]1C(=O)N[C@H]1CC[C@@H]2CN(S(=O)(=O)c3cccc(C(F)(F)F)c3)C[C@@H]21 [Example 274] | pIC50 | 5.86 |
| O=C(N[C@@H]1CC[C@@H]2CN(Cc3cccc(C(F)(F)F)c3)C[C@@H]21)C(C1CCCCC1)C1CCCCC1 [Example 157] | pIC50 | 5.68 |
| CCC[C@H](NC)C(=O)N[C@H]1CC[C@@H]2CN(S(=O)(=O)c3cccc(C(F)(F)F)c3)C[C@@H]21 [Example 394] | pIC50 | 6.01 |
| CC[C@H](C)[C@@H](C(=O)N[C@@H]1CC[C@H]2CN(S(=O)(=O)c3ccc(C(F)(F)F)cc3)C[C@H]21)N(C)C(=O)OC(C)(C)C [Example 335] | pIC50 | 6.08 |
| CN(C(=O)OC(C)(C)C)[C@@H](CC(C)(C)C)C(=O)N[C@H]1CC[C@@H]2CN(S(=O)(=O)c3cccc(C(F)(F)F)c3)C[C@@H]21 [Example 336] | pIC50 | 6.32 |
| CCN(C(=O)[C@H](CC(C)(C)C)N(C)C(=O)OC(C)(C)C)[C@H]1CC[C@@H]2CN(S(=O)(=O)c3ccc(C(F)(F)F)cc3)C[C@@H]21 [Example 296] | pIC50 | 5.67 |
| CC(C)(C)OC(=O)N1Cc2ccccc2C[C@H]1C(=O)N[C@H]1CC[C@@H]2CN(S(=O)(=O)c3cccc(C(F)(F)F)c3)C[C@@H]21 [Example 275] | pIC50 | 6.04 |
| CCC[C@H](NCC(C)(C)C)C(=O)N[C@H]1CC[C@@H]2CN(S(=O)(=O)c3cccc(C(F)(F)F)c3)C[C@@H]21 [Example 253] | pIC50 | 6.44 |
| CC(C)(C)C[C@H](NS(C)(=O)=O)C(=O)N[C@H]1CC[C@@H]2CN(Cc3ccc(C(F)(F)F)cc3)C[C@@H]21 [Example 519] | pIC50 | 5.29 |
| O=C(N[C@H]1CC[C@H]2CN(Cc3ccc(F)cc3)C[C@H]21)C(C1CCCCC1)C1CCCCC1 [Example 56] | pIC50 | 6.00 |
| CCC[C@H](N)C(=O)N[C@H]1CC[C@@H]2CN(S(=O)(=O)c3cccc(C(F)(F)F)c3)C[C@@H]21 [Example 424] | pIC50 | 5.51 |
| CC(C)C[C@H](NS(C)(=O)=O)C(=O)N[C@H]1CC[C@@H]2CN(Cc3cccc(C(F)(F)F)c3)C[C@@H]21 [Example 516] | pIC50 | 5.52 |
| CN[C@@H](CC(C)C)C(=O)N[C@H]1CC[C@H]2CN(S(=O)(=O)c3ccc(C(F)(F)F)cc3)C[C@H]21 [Example 457] | pIC50 | 5.51 |
| CCCC[C@@H](C(=O)N[C@H]1CC[C@@H]2CN(S(=O)(=O)c3ccc(C(F)(F)F)cc3)C[C@@H]21)N(C)C(=O)OC(C)(C)C [Example 343] | pIC50 | 6.00 |
| CCC[C@H](NC)C(=O)N[C@H]1CC[C@@H]2CN(S(=O)(=O)c3cccc(Br)c3)C[C@@H]21 [Example 551] | pIC50 | 5.60 |
| CN[C@@H](CC(C)C)C(=O)N[C@H]1CC[C@@H]2CN(S(=O)(=O)c3ccc(F)cc3)C[C@@H]21 [Example 455] | pIC50 | 5.52 |
| CC(C)(C)C[C@H](NCC1CC1)C(=O)N[C@H]1CC[C@@H]2CN(c3ccc(C(F)(F)F)cn3)C[C@@H]21 [Example 478] | pIC50 | 6.12 |
| CCC[C@@H](C(=O)N[C@H]1CC[C@H]2CN(Cc3ccccc3)C[C@H]21)N(C)C(=O)OC(C)(C)C [Example 238] | pIC50 | 5.24 |
